Test system: SF-268 CNS
Assay: NCI-60 one-dose screen, 48 h (100 = growth as untreated, 0 = no growth, -100 = all killed)
Settings: 10 µM unless noted
Procedure: Cells are grown in 96 well plates and exposed to the test compound for 48 hours. Compounds are tested at a single concentration, which is 10^-5 M for most compounds. The reported endpoint is percent growth (GI% or GIPRCNT), where numbers from 0 - 100% represent growth inhibition, and numbers from -100% - 0 represent cell death. For example, a value of 40 represents 60% growth inhibition. A value of 0 means no net growth occurred over the course of the experiment. […]
Compounds without any hit were thinned out: in the full panel of roughly 83,000, 20% have a hit.

>  <compound>
CCCCCN1C(=O)CCC1=O

>  <result-unit>
%

>  <growth>
93.3

$$$$
>  <compound>
COP(=O)(OC)C(c1ccc(O)cc1)(c1ccc(O)cc1)c1ccc(O)cc1

>  <result-unit>
%

>  <growth>
106

$$$$
>  <compound>
CCN(CC)CCNCC(=O)Oc1ccc(/C=C/C(=O)CC(=O)/C=C/c2ccc(OC(=O)CNCCN(CC)CC)c(OC)c2)cc1OC

>  <result-unit>
%

>  <growth>
13.5

$$$$
>  <compound>
Cc1cc(C)c(C(=O)c2cccs2)c(C)c1

>  <result-unit>
%

>  <growth>
104

$$$$
>  <compound>
C/C(=C\CCc1ccoc1)CC/C=C(\C)CCCC1COC(=O)C1 (stereo unspecified)

>  <result-unit>
%

>  <growth>
107

$$$$
>  <compound>
O=C1N=C(N2CCOCC2)S/C1=C\c1cn(-c2ccccc2)nc1-c1ccccc1

>  <result-unit>
%

>  <growth>
74.8

$$$$
>  <compound>
COc1ccc(CNC(=O)c2c(C)n([O-])c3cc(F)c(F)cc3[n+]2=O)cc1

>  <result-unit>
%

>  <growth>
88.7

$$$$
>  <compound>
CC(=O)Nc1ccc(C(=O)COc2ccc(/C=C3\CCc4ccccc4C3=O)cc2)cc1

>  <result-unit>
%

>  <growth>
93.6

$$$$
>  <compound>
Cc1ccc2c(c1)C(=O)/C(=C\Nc1ccc(C(N)=O)cc1)C(O)O2 (stereo unspecified)

>  <result-unit>
%

>  <growth>
82.8

$$$$
>  <compound>
O=C(Nc1nc(-c2ccc(Cl)cc2)cs1)c1cc(-c2ccc(Br)cc2)nc2ccc(Cl)cc12

>  <result-unit>
%

>  <growth>
31.6

$$$$
>  <compound>
O=C1c2cccc(NCCN=Cc3ccccc3O)c2C(=O)c2c(NCCN=Cc3ccccc3O)cccc21

>  <result-unit>
%

>  <growth>
7.05

$$$$
>  <compound>
N#Cc1c(NC(=O)c2ccco2)[n+]([O-])c2ccccc2[n+]1[O-]

>  <result-unit>
%

>  <growth>
110

$$$$
>  <compound>
COc1cc(/C(Cl)=C/C=C/C(=O)c2c(C)[n+]([O-])c3ccc(Cl)cc3[n+]2[O-])cc(OC)c1OC

>  <result-unit>
%

>  <growth>
-20.1

$$$$
>  <compound>
COc1ccc(-n2cnc3cc(C(=O)N4CCCCC4)ccc32)cc1

>  <result-unit>
%

>  <growth>
105

$$$$
>  <compound>
O=C(Nc1ccccc1S)c1ccccc1

>  <result-unit>
%

>  <growth>
103

$$$$
>  <compound>
NC(=NCCCCCCN=C(N)/N=C(\N)Nc1ccc(Cl)cc1)/N=C(\N)Nc1ccc(Cl)cc1

>  <result-unit>
%

>  <growth>
20.8

$$$$
>  <compound>
c1ccc(-c2n(Cc3ccc4ccccc4c3)cc[n+]2Cc2ccc3ccccc3c2)cc1

>  <result-unit>
%

>  <growth>
-58.2

$$$$
>  <compound>
OCc1n(Cc2ccc3ccccc3c2)cc[n+]1Cc1ccc2ccccc2c1

>  <result-unit>
%

>  <growth>
60.7

$$$$
>  <compound>
CC(=O)N1N=C(c2ccc3c(c2)OCO3)CC1c1c(C)nn(-c2ccccc2)c1N(C)Cc1ccccc1 (stereo unspecified)

>  <result-unit>
%

>  <growth>
74.4

$$$$
>  <compound>
Clc1ccc2nc(CI)c(CI)nc2c1

>  <result-unit>
%

>  <growth>
73.7

$$$$
>  <compound>
CCN(CC)c1ccc(/C=C/C(=O)c2cccc(NS(C)(=O)=O)c2)cc1

>  <result-unit>
%

>  <growth>
61.5

$$$$
